procedure_text: amyloid nucleation score (Sup35N fusion, yeast selection) (log enrichment); library NNK2; higher = more nucleation; inactive = no reads after selection;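 also: zero at mode of non-aggregating sequences after 7 days selection at 30°C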
readout_kind: amyloid nucleation score
Reply with just the number.

In: What value of amyloid nucleation score has been recorded for this entry: IWQNVDCCPSWRLCVANHFM
Out: 6.78

In: What value of amyloid nucleation score has been recorded for this entry: DCYSQPMLRVLDSVAHSVWF
Out: 0.369

In: What value of amyloid nucleation score has been recorded for this entry: ILWDRISFNMLRLTRCRFFF
Out: -0.632

In: What value of amyloid nucleation score has been recorded for this entry: NCTHPFDMTPNFFWSYGIVG
Out: -0.656

In: What value of amyloid nucleation score has been recorded for this entry: HLMRLHY
Out: -1.78

In: What value of amyloid nucleation score has been recorded for this entry: AKVACKDGLHACESESGFIW
Out: 1.54

In: What value of amyloid nucleation score has been recorded for this entry: CRHYRRYLLNLQVGWMR
Out: 0.978

In: What value of amyloid nucleation score has been recorded for this entry: SMSYTS
Out: 0.617

In: What value of amyloid nucleation score has been recorded for this entry: DKKMVTTPTMPDK
Out: 0.977

In: What value of amyloid nucleation score has been recorded for this entry: LCKFFDTVVSMLGSVCSGNQ
Out: 3.22

In: What value of amyloid nucleation score has been recorded for this entry: GYSDYVSYVKGC
Out: 0.182

In: What value of amyloid nucleation score has been recorded for this entry: LAQWLTRLYAK
Out: 1.12

In: What value of amyloid nucleation score has been recorded for this entry: CTILVILSKVSYCQYPWEHV
Out: 1.52

In: What value of amyloid nucleation score has been recorded for this entry: LNRISYHTYSILPNVTIMKS
Out: 0.498

In: What value of amyloid nucleation score has been recorded for this entry: ILGLPSINSSISLHKTITDP
Out: 2.86
